test system: A498 renal; assay: NCI tumour cell line growth inhibition, 48 h
PARAMETER: GI50

compound=O=C(/C=C/c1ccc2c(c1)OCO2)c1ccccc1 reported_measurement="12.4 µM"
compound=Fc1ccc(Nc2ccc3cc(OCCCN4CCOCC4)ccc3n2)cc1F reported_measurement="2.21 µM"
compound="CCOC(=O)c1ccc(C(O)CC(=O)OC(C)(C)C)[nH]1 (stereo not drawn)" reported_measurement="23.7 µM"
compound=COc1cc(/C=C/C(=O)CC(=O)/C=C/c2ccc(OC(=O)CCNC34CC5CC(CC(C5)C3)C4)c(OC)c2)ccc1OC(=O)CCNC12CC3CC(CC(C3)C1)C2 reported_measurement="4.61 µM"
compound=CC(=O)[CH-]C(C)=O.CC(=O)[CH-]C(C)=O.CC(=O)[CH-]C(C)=O.[Cl-].[Hf+4] reported_measurement="> 100 µM"
compound=Nc1c(C(=O)Nc2cccc3ccccc23)sc2nc3c(cc12)CCCCC3 reported_measurement="0.646 µM"

Q) Look at this compound and give its reported GI50. "CCC[CH2][Sn]([CH2]CCC)([O]C(=O)c1cccc(F)c1F)[O][Sn]([CH2]CCC)([CH2]CCC)[O]C(=O)c1cccc(F)c1F"
A) 0.202 µM

Q) Field request: GI50 | item: "CCOC(=O)c1ccc2[nH]c(Cc3[nH]c4ccc(C(=O)OCC)cc4c3C)c(C)c2c1"
A) 5.45 µM

###

tested on: NCI-H522 lung; test: NCI tumour cell line growth inhibition, 48 h
// values below are reported log10 TGI
Answers are given as log10 of TGI in µM.

compound=COc1ccc(C(=O)c2ccc(OC)cc2OC)cc1 reported_measurement=0.64
compound=COc1nc(C#CCCCC#N)nc(OC)n1 reported_measurement=1.47
compound=COc1cc2c3c(n(CCCn4ccnc4)c(=O)c2cc1OC)-c1ccccc1C3=O reported_measurement=-1.21

Q) Notebook entry, NCI-H522 lung assay: log10 TGI of COc1c(C(CC(C)C)OC(C)=O)ccc2c1C(=O)OCc1cc(C)cc(O)c1O2 (configuration not stated) = ?
A) 1.42

Q) Param readout = log10 TGI; param system = NCI-H522 lung; param query = "CCOC(=O)c1ccc2[nH]c(Cc3[nH]c4ccc(C(=O)OCC)cc4c3C)c(C)c2c1" ; response: value
A) 1.28

Q) Notebook: pull reported log10 TGI for NCI-H522 lung, entry "COc1cc(-c2ccc(-[n+]3nc(-c4ccc([N+](=O)[O-])cc4)nn3-c3ccc([N+](=O)[O-])cc3)c(OC)c2)ccc1-[n+]1nc(-c2ccc([N+](=O)[O-])cc2)nn1-c1ccc([N+](=O)[O-])cc1"
A) 0.89

Q) Find the measured log10 TGI: item "Cc1cc(Nc2ncc(Cl)c(Nc3ccccc3S(=O)(=O)C(C)C)n2)c(OC(C)C)cc1C1CCNCC1" , target or system NCI-H522 lung.
A) 0.49

###

tested on: A498 renal; test: NCI tumour cell line growth inhibition, 48 h; in the data active = GI50 below about 0.43 µM; inactive = the rest
Pick one: Yes for active, No for inactive

Q) Which outcome did this test record for the molecule "N#C/C(=C\c1ccc(Br)cc1)n1nnc2cc(F)c(F)cc21" ?
A) No

Q) Hi, do you know how "O=C(c1cccs1)c1c(C(F)(F)F)n([O-])c2cc(C(F)(F)F)ccc2[n+]1=O" came out in this test?
A) No

Q) Hey, what did the test say about CC1=C([Se]CC(OC(=O)[C@@H](CSSC(C)(C)C)NC(=O)C(C)(C)C)C(=O)NCCCCCC(=O)OCc2ccccc2)C(=O)c2ccccc2C1=O (stereo partly specified) ?
A) No

Q) Assay outcome for "Cc1c(N(C(=O)c2cc(-c3cc(Cl)ccc3C(=O)N3Cc4ccccc4C[C@H]3CN3CCOCC3)n(C)c2C)c2ccc(O)cc2)cc(C#N)n1C" : what was it?
A) No

Q) Which result was noted for this molecule in the test: "COc1cc(-c2ccc(-[n+]3nc(-c4ccc([N+](=O)[O-])cc4)nn3-c3ccc([N+](=O)[O-])cc3)c(OC)c2)ccc1-[n+]1nc(-c2ccc([N+](=O)[O-])cc2)nn1-c1ccc([N+](=O)[O-])cc1"
A) No

Q) Answer briefly: the call reported for CC(=O)O[C@H]1C(=O)[C@@]2(C)[C@H]([C@H](OC(=O)c3ccccc3)[C@]3(O)C[C@H](OC(=O)[C@H](OC(=O)CCC(=O)OC4CCC(S/N=C(N)/N=C(\N)N(C)C)CC4)[C@@H](NC(=O)c4ccccc4)c4ccccc4)C(C)=C1C3(C)C)[C@]1(OC(C)=O)CO[C@@H]1C[C@@H]2O (stereo partly specified) in this assay.
A) Yes
